B1: Pistol ribozyme (parent)
chain: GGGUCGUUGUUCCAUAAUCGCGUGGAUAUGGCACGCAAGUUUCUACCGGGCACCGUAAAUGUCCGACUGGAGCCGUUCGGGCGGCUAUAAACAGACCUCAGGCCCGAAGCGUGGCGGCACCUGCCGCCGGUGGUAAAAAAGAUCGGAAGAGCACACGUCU

- Variants of: B1
- experiment description: aptazyme ON/OFF ratio, guanine; higher = stronger switching; co-transcriptional cleavage with and without guanine
Listed next: entries and their corresponding aptazyme ON/OFF ratio.
readout kind: aptazyme ON/OFF ratio

variant description: U7G U8G G9A U10A U11G C12G C13G
measured result: 1.15
--
variant description: U7C U8G G9A U10C U11A C12A C13A
measured result: 1.11
--
variant description: U7A U8G G9U U11C C12A C13U
measured result: 1.11
--
variant description: U7C G9A U10A U11A C12A
measured result: 1.24
--
variant description: U7G U8C G9U C13G
measured result: 1.04
--
variant description: U7G U8C G9C U10C U11A C13A
measured result: 1.04
--
variant description: U7A U8C G9C U11A C12A C13G
measured result: 1.08
--
variant description: U7C G9U U10G U11G C13G
measured result: 1.1
--
variant description: U7A U8G G9U U10G U11G C12G C13G
measured result: 1.24
--
variant description: U7G U8A G9C U11A C12A
measured result: 1.03
--
variant description: U8C G9U U10G C13G
measured result: 1.21
